Catalogue of compounds with associated pEC50
study system: human mGluR4 (Homo sapiens (Human))
test protocol: mGluR4 potentiation assay, CHO cells transfected with human mGluR4, Ca2+-sensitive dye, EC20 agonist
Assay type: cell-based
applied conditions: potentiation of mGluR4; summary list repeated at the end of the table; species not stated
pEC50: −log10 of the molar value.
parameter measured: pEC50

given_smiles=CN(C(=O)c1nsc2cc(Nc3n[nH]c4cccnc34)ccc12)C1CC(F)(F)C1 measured_result=6.79
given_smiles=CN1CCC2(CCN(C(=O)c3nsc4cc(Nc5n[nH]c6nccnc56)ccc34)CC2)C1=O measured_result=5.92
given_smiles=O=C(c1nsc2cc(Nc3n[nH]c4nccnc34)ccc12)N1CCC(F)(F)CC1 measured_result=6.08
given_smiles=O=C(C1CCOCC1)N1CCC(c2nsc3cc(Nc4n[nH]c5cccnc45)ccc23)CC1 measured_result=5.92
given_smiles=CC(C)(O)c1nsc2cc(Nc3n[nH]c4cccnc34)ccc12 measured_result=5.99
given_smiles=c1cnc2[nH]nc(Nc3cnc4c(CN5CCOCC5)nsc4c3)c2c1 measured_result=5.99
given_smiles=CC(C)(C)C1CCN(Cc2nsc3cc(Nc4n[nH]c5cccnc45)cnc23)CC1 measured_result=5.86
given_smiles=CC(C)(C)Cc1nsc2cc(Nc3n[nH]c4ncccc34)cnc12 measured_result=6.92

* * *

study system: human mGluR4 (Homo sapiens (Human), UniProt Q14833)
Sequence (Q14833 33-912): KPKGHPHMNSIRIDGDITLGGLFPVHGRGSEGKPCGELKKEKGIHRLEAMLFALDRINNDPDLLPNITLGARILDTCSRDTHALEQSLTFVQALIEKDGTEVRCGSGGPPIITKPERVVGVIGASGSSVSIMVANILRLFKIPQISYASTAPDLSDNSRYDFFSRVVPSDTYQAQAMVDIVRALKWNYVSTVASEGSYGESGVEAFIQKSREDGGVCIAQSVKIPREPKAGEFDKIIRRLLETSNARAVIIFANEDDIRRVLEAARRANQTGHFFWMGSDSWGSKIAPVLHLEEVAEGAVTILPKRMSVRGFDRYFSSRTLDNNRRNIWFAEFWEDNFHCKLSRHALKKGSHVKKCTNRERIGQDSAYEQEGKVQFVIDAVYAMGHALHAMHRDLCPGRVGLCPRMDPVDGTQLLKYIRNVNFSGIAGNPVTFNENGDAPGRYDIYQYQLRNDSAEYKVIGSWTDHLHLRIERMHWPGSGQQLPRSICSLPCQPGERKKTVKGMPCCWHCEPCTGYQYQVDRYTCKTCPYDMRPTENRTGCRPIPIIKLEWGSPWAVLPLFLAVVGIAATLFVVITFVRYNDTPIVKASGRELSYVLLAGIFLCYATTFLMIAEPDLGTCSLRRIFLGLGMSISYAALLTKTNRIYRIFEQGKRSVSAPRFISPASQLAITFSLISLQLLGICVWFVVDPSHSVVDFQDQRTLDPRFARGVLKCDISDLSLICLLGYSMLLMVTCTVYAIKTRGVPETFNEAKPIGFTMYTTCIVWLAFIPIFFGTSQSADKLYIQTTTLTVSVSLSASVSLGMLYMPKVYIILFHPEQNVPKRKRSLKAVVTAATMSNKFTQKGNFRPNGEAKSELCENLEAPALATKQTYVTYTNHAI
test protocol: mGluR4 potentiation assay, CHO cells transfected with human mGluR4, Ca2+-sensitive dye, EC20 agonist
Type: cell-based
applied conditions: potentiation of mGluR4; summary list repeated at the end of the table; species not stated
parameter measured: EC50 (nM)

given_smiles=CN1CCN(C(=O)c2nsc3cc(Nc4n[nH]c5cccnc45)ccc23)CC1 study_system="human mGluR4 (Homo sapiens (Human), UniProt Q14833)" parameter_measured=EC50 measured_result=1140
given_smiles=c1cnc2c(Nc3cnc4c(CN5CCCC5)nsc4c3)n[nH]c2c1 study_system="human mGluR4 (Homo sapiens (Human), UniProt Q14833)" parameter_measured=EC50 measured_result=3740
given_smiles=CN1CCN(C(=O)c2nsc3cc(Nc4n[nH]c5nccnc45)ccc23)CC1=O study_system="human mGluR4 (Homo sapiens (Human), UniProt Q14833)" parameter_measured=EC50 measured_result=1530
given_smiles=FC1(F)CCCN(Cc2nsc3cc(Nc4n[nH]c5ncccc45)cnc23)C1 study_system="human mGluR4 (Homo sapiens (Human), UniProt Q14833)" parameter_measured=EC50 measured_result=101
given_smiles=O=C(c1nsc2cc(Nc3n[nH]c4cccnc34)ccc12)N1CCOCC1 study_system="human mGluR4 (Homo sapiens (Human), UniProt Q14833)" parameter_measured=EC50 measured_result=303
given_smiles=CCc1nsc2cc(Nc3n[nH]c4cccnc34)cnc12 study_system="human mGluR4 (Homo sapiens (Human), UniProt Q14833)" parameter_measured=EC50 measured_result=38.3
given_smiles=Cc1nsc2cc(Nc3n[nH]c4cccnc34)cnc12 study_system="human mGluR4 (Homo sapiens (Human), UniProt Q14833)" parameter_measured=EC50 measured_result=157

* * *

study system: UniProt:Q14833
test protocol: mGluR4 potentiation assay, CHO cells transfected with human mGluR4, Ca2+-sensitive dye, EC20 agonist
Assay type: cell-based
applied conditions: potentiation of mGluR4; main compound table; species not given
parameter measured: EC50 (nM)

compound="CC1CN(C(=O)c2nsc3cc(Nc4n[nH]c5cccnc45)ccc23)CC(C)O1 (stereo not drawn)" display_unit=nM measured_result=306
compound=O=C(C1CCOCC1)N1CCC(c2nsc3cc(Nc4n[nH]c5cccnc45)ccc23)CC1 display_unit=nM measured_result=1200
compound=O=C(c1nsc2cc(Nc3n[nH]c4cccnc34)ccc12)N1CCC(C(F)(F)F)CC1 display_unit=nM measured_result=50
compound=CN1CCC2(CCN(C(=O)c3nsc4cc(Nc5n[nH]c6nccnc56)ccc34)CC2)C1=O display_unit=nM measured_result=1210
compound=O=C(c1nsc2cc(Nc3n[nH]c4nccnc34)ccc12)N1CCC(F)(F)CC1 display_unit=nM measured_result=827
compound=Cc1nsc2ccc(Nc3n[nH]c4cccnc34)cc12 display_unit=nM measured_result=187
compound=FC1(F)CCCN(Cc2nsc3cc(Nc4n[nH]c5cccnc45)cnc23)C1 display_unit=nM measured_result=55.9
compound=C[C@H]1CN(Cc2nsc3cc(Nc4n[nH]c5cccnc45)cnc23)CCO1 display_unit=nM measured_result=353
compound=FC1(F)CCCN(Cc2nsc3cc(Nc4n[nH]c5ncccc45)cnc23)C1 display_unit=nM measured_result=101
compound=c1cnc2[nH]nc(Nc3cnc4c(CN5CCOCC5)nsc4c3)c2c1 display_unit=nM measured_result=1030
compound=CC1(C)CN(Cc2nsc3cc(Nc4n[nH]c5cccnc45)cnc23)CCO1 display_unit=nM measured_result=147
compound=O=C(c1nsc2cc(Nc3n[nH]c4cccnc34)ccc12)N1CCCOCC1 display_unit=nM measured_result=607
compound=CN1CCN(C(=O)c2nsc3cc(Nc4n[nH]c5cccnc45)ccc23)CC1 display_unit=nM measured_result=1140
compound=CC(C)(C)C1CCN(Cc2nsc3cc(Nc4n[nH]c5ncccc45)cnc23)CC1 display_unit=nM measured_result=4130
compound=c1ccc(-c2nsc3cc(Nc4n[nH]c5ncccc45)ccc23)cc1 display_unit=nM measured_result=2040
compound="CCC(C)c1nsc2cc(Nc3n[nH]c4cccnc34)cnc12 (stereo not drawn)" display_unit=nM measured_result=54.2
compound="CC1CC(C)CN(C(=O)c2nsc3cc(Nc4n[nH]c5cccnc45)ccc23)C1 (stereo not drawn)" display_unit=nM measured_result=517
compound=O=C(NC1CC(F)(F)C1)c1nsc2cc(Nc3n[nH]c4cccnc34)ccc12 display_unit=nM measured_result=32
